# Assay System: Adenosine receptor A1 (Homo sapiens) (UniProt P30542)
# Sequence (whole entry): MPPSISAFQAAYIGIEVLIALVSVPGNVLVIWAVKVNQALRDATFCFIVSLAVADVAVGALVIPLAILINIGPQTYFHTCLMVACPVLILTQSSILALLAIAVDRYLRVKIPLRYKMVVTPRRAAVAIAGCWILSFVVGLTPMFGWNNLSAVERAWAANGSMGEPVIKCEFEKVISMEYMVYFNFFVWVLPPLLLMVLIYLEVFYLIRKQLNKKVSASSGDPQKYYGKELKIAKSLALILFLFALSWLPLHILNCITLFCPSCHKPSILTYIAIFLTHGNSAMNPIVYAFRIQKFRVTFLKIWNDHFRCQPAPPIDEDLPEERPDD
# Assay Name: Displacement of [3H]DPCPX from human cloned adenosine A1 receptor expressed in CHO cells at 10 uM
# Assay type: cell-based

Smiles Notation: O=C(NCc1ccccc1)Nc1nn(-c2ccccc2)c(=O)c2ccccc12
Assay System: Adenosine receptor A1 (Homo sapiens) (UniProt P30542)
inhibition [%]: 20
--
Smiles Notation: O=C(Nc1ccc(Cl)cc1)Nc1nn(-c2ccccc2)c(=O)c2ccccc12
Assay System: Adenosine receptor A1 (Homo sapiens) (UniProt P30542)
inhibition [%]: 10
--
Smiles Notation: COc1ccccc1NC(=O)Nc1nn(-c2ccccc2)c(=O)c2ccccc12
Assay System: Adenosine receptor A1 (Homo sapiens) (UniProt P30542)
inhibition [%]: 0
--
Smiles Notation: O=C(Cc1ccccc1)Nc1nn(-c2ccccc2)c(=O)c2ccccc12
Assay System: Adenosine receptor A1 (Homo sapiens) (UniProt P30542)
inhibition [%]: 23
--
Smiles Notation: O=C(Nc1nn(-c2ccccc2)c(=O)c2ccccc12)c1ccccc1
Assay System: Adenosine receptor A1 (Homo sapiens) (UniProt P30542)
inhibition [%]: 44

---

# Assay System: Adenosine receptor A1 (Homo sapiens)
# Assay Name: Displacement of [3H]DPCPX from human cloned adenosine A1 receptor expressed in CHO cells at 10 uM
# Type: cell-based
// inhibition lookup, one value per entry

Smiles Notation: CC(=O)N(C(C)=O)c1nn(-c2ccccc2)c(=O)c2ccccc12
inhibition: 47%
//
Smiles Notation: O=C(Nc1ccccc1Cl)Nc1nn(-c2ccccc2)c(=O)c2ccccc12
inhibition: 0%
//
Smiles Notation: COc1ccc(C(=O)Nc2nn(-c3ccccc3)c(=O)c3ccccc23)cc1
inhibition: 0%
//
Smiles Notation: Cc1ccccc1NC(=O)Nc1nn(-c2ccccc2)c(=O)c2ccccc12
inhibition: 20%
//
Smiles Notation: O=C(Nc1nn(-c2ccccc2)c(=O)c2ccccc12)c1ccc(Cl)cc1
inhibition: 26%
//
Smiles Notation: Cc1ccc(NC(=O)Nc2nn(-c3ccccc3)c(=O)c3ccccc23)cc1
inhibition: 29%
//
Smiles Notation: COc1ccc(NC(=O)Nc2nn(-c3ccccc3)c(=O)c3ccccc23)cc1
inhibition: 4%
//
Smiles Notation: Nc1nn(-c2ccccc2)c(=O)c2ccccc12
inhibition: 24%
//
Smiles Notation: COc1cccc(NC(=O)Nc2nn(-c3ccccc3)c(=O)c3ccccc23)c1
inhibition: 45%
//
Smiles Notation: COc1ccccc1CNC(=O)Nc1nn(-c2ccccc2)c(=O)c2ccccc12
inhibition: 28%

---

# Assay System: Adenosine receptor A2b (Homo sapiens) (UniProt P29275)
# Sequence (whole entry): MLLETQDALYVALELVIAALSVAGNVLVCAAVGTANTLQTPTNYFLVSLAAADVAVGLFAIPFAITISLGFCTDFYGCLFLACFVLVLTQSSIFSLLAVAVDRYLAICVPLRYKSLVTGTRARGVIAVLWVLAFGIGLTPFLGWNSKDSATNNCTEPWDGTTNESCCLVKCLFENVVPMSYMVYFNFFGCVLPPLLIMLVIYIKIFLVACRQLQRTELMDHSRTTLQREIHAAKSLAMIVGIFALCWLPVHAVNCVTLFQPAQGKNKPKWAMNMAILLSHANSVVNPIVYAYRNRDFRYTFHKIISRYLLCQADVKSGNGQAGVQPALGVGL
# Assay Name: Antagonist activity at human cloned adenosine A2B receptor expressed in CHO cells assessed as inhibition of NECA-induced cAMP accumulation at 1 nM to 10 uM after 15 mins
# Type: functional, cell-based

Smiles Notation: COc1ccccc1NC(=O)Nc1nn(-c2ccccc2)c(=O)c2ccccc12
Units Of Measure: %
inhibition: 16
//
Smiles Notation: COc1ccc(NC(=O)Nc2nn(-c3ccccc3)c(=O)c3ccccc23)cc1
Units Of Measure: %
inhibition: 0
//
Smiles Notation: COc1cccc(NC(=O)Nc2nn(-c3ccccc3)c(=O)c3ccccc23)c1
Units Of Measure: %
inhibition: 57
//
Smiles Notation: COc1ccc(OC)c(NC(=O)Nc2nn(-c3ccccc3)c(=O)c3ccccc23)c1
Units Of Measure: %
inhibition: 0
//
Smiles Notation: O=C(NCc1ccccc1)Nc1nn(-c2ccccc2)c(=O)c2ccccc12
Units Of Measure: %
inhibition: 34

---

Measured inhibition, listed per entry.
# Assay System: Adenosine receptor A2a (Homo sapiens) (UniProt P29274)
# Sequence (P29274 whole entry): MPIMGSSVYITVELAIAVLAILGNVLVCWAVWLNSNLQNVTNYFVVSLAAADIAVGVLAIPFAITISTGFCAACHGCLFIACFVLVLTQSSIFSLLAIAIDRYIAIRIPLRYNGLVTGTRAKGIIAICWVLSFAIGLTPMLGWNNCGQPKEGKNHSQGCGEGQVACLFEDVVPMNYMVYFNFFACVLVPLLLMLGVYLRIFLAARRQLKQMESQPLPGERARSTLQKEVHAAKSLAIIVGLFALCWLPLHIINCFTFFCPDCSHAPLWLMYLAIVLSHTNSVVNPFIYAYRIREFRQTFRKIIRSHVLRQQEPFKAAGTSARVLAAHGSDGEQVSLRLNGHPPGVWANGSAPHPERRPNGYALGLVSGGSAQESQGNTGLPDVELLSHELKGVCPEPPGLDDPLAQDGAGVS
# Assay Name: Displacement of [3H]NECA from human cloned adenosine A2A receptor expressed in CHO cells at 10 uM
# Type: cell-based
Recorded Metric: inhibition (%)

Smiles Notation: Nc1nn(-c2ccccc2)c(=O)c2ccccc12
Observed Result: 45

Smiles Notation: O=C(Nc1nn(-c2ccccc2)c(=O)c2ccccc12)c1ccccc1
Observed Result: 35

Smiles Notation: COc1ccc(NC(=O)Nc2nn(-c3ccccc3)c(=O)c3ccccc23)cc1
Observed Result: 51

---

Let's go through some Ki measurements on Adenosine receptor A3 (Homo sapiens) together.
Sequence (P0DMS8 whole entry): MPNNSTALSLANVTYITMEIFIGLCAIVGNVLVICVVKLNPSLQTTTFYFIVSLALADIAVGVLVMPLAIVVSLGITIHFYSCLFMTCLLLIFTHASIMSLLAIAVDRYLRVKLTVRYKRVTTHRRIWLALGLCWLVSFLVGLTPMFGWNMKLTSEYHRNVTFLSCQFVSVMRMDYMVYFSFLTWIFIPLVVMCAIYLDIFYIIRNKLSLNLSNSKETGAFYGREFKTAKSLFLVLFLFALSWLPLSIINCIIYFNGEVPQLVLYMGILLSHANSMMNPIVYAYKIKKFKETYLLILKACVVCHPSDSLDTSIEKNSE
Recorded Metric: Ki (nM)

Smiles Notation: COc1ccc(OC)c(NC(=O)Nc2nn(-c3ccccc3)c(=O)c3ccccc23)c1
Units Of Measure: nM
Observed Result: 0.776
--
Smiles Notation: COc1ccccc1CNC(=O)Nc1nn(-c2ccccc2)c(=O)c2ccccc12
Units Of Measure: nM
Observed Result: 274
--
Smiles Notation: COc1ccccc1NC(=O)Nc1nn(-c2ccccc2)c(=O)c2ccccc12
Units Of Measure: nM
Observed Result: 8.9
